tested on: A 172; test: cells; format: functional, cell-based, Homo sapiens; settings: a 172;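 further: growth inhibition of A172 cells, measured with a cell viability readout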
Description: SANGER: Inhibition of human A172 cell growth in a cell viability assay.
pIC50: −log10 of the molar value.

compound | target-under-test | pIC50
Cc1cc([C@@H](C)Nc2ccccc2C(=O)O)c2nc(N3CCOCC3)cc(=O)n2c1 [AZD-6482] | A 172 | < 5.29

###

test system: MS-1; assay: cells; type: functional, cell-based; details: Homo sapiens;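 further: growth inhibition of MS-1 cells, read out by cell viability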
Description: SANGER: Inhibition of human MS-1 cell growth in a cell viability assay.
molecules and their reported IC50
measured-quantity: IC50

molecule | measured-quantity | reading
CCC1=C[C@@H]2CN(C1)Cc1c([nH]c3ccccc13)[C@@](C(=O)OC)(c1cc3c(cc1OC)N(C)[C@H]1[C@@](O)(C(=O)OC)[C@H](OC(C)=O)[C@]4(CC)C=CCN5CC[C@]31[C@@H]54)C2 | IC50 | > 64 nM
Cc1cc(Nc2cc(N3CCN(C)CC3)nc(Sc3ccc(NC(=O)C4CC4)cc3)n2)n[nH]1 | IC50 | > 2000 nM
COC(=O)CNC(=O)C(=O)OC | IC50 | 878000 nM
C=CCNC1=C2C[C@@H](C)C[C@H](OC)[C@H](O)[C@@H](C)/C=C(\C)[C@H](OC(N)=O)[C@@H](OC)/C=C\C=C(/C)C(=O)NC(=CC1=O)C2=O | IC50 | > 1000 nM
CO[C@H]1C[C@@H]2CC[C@@H](C)[C@@](O)(O2)C(=O)C(=O)N2CCCC[C@H]2C(=O)O[C@H]([C@H](C)C[C@@H]2CC[C@@H](O)[C@H](OC)C2)CC(=O)[C@H](C)/C=C(\C)[C@@H](O)[C@@H](OC)C(=O)[C@H](C)C[C@H](C)/C=C/C=C/C=C/1C | IC50 | > 100 nM

###

molecules and their reported pIC50
test system: LU-135; assay: cells; format: functional, cell-based; details: Homo sapiens
Description: SANGER: Inhibition of human LU-135 cell growth in a cell viability assay.
pIC50: −log10 of the molar value.

molecule | pIC50
Cn1cc(C2=C(c3ccc(Cl)cc3Cl)C(=O)NC2=O)c2ccccc21 | < 5.00
CCOc1nc(NC(=O)Cc2cc(OC)ccc2OC)cc(N)c1C#N | < 5.00
Nc1ccn([C@@H]2O[C@H](CO)[C@@H](O)[C@@H]2O)c(=O)n1 | < 5.70
C=CCNC1=C2C[C@@H](C)C[C@H](OC)[C@H](O)[C@@H](C)/C=C(\C)[C@H](OC(N)=O)[C@@H](OC)/C=C\C=C(/C)C(=O)NC(=CC1=O)C2=O | < 6.00
COc1cc(F)c(F)c(Nc2ccc(I)cc2F)c1NS(=O)(=O)C1(CC(O)CO)CC1 (stereo not given) | < 5.30

###

system: NCI-H1648; experiment: cells; assay type: functional, cell-based, Homo sapiens; settings: Homo sapiens, NCI-H1648;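 further: cell viability assay measuring inhibition of NCI-H1648 cell growth, from the Sanger screening data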
Description: SANGER: Inhibition of human NCI-H1648 cell growth in a cell viability assay.
pIC50: −log10 of the molar value.
compounds and their reported pIC50
measured-quantity: pIC50

compound | target-under-test | measured-quantity | censoring-operator | reading
Cc1ccc(Nc2nccc(N(C)c3ccc4c(C)n(C)nc4c3)n2)cc1S(N)(=O)=O | NCI-H1648 | pIC50 | < | 5.10
CN(C)C/C=C/C(=O)Nc1cc2c(Nc3ccc(F)c(Cl)c3)ncnc2cc1O[C@H]1CCOC1 | NCI-H1648 | pIC50 | = | 6.35
O=C(NOCC1CC1)c1ccc(F)c(F)c1Nc1ccc(I)cc1Cl | NCI-H1648 | pIC50 | < | 5.00
CC(=O)O[C@@H]1[C@@H](OC(C)=O)[C@@H](O)[C@H](Oc2c(-c3ccc(O)cc3)oc3cc(O)cc(O)c3c2=O)O[C@H]1C | NCI-H1648 | pIC50 | < | 5.00
CCC1=C[C@@H]2CN(C1)Cc1c([nH]c3ccccc13)[C@@](C(=O)OC)(c1cc3c(cc1OC)N(C)[C@H]1[C@@](O)(C(=O)OC)[C@H](OC(C)=O)[C@]4(CC)C=CCN5CC[C@]31[C@@H]54)C2 | NCI-H1648 | pIC50 | = | 8.41
C=CCNC1=C2C[C@@H](C)C[C@H](OC)[C@H](O)[C@@H](C)/C=C(\C)[C@H](OC(N)=O)[C@@H](OC)/C=C\C=C(/C)C(=O)NC(=CC1=O)C2=O | NCI-H1648 | pIC50 | = | 6.82
CN(Cc1cnc2nc(N)nc(N)c2n1)c1ccc(C(=O)N[C@@H](CCC(=O)O)C(=O)O)cc1 [METHOTREXATE] | NCI-H1648 | pIC50 | < | 6.70

###

compounds and their reported IC50
system: MIA PaCa-2; assay: cells; type: functional, cell-based, Homo sapiens; conditions: Homo sapiens, MIA PaCa-2;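 further: growth inhibition of MIA PaCa-2 cells, read out with a cell viability assay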
Description: SANGER: Inhibition of human MIA-PaCa-2 cell growth in a cell viability assay.
measured-quantity: IC50 (nM)

compound | target-under-test | censoring-operator | reading
O=C(NOCC1CC1)c1ccc(F)c(F)c1Nc1ccc(I)cc1Cl | MIA PaCa-2 | = | 3010
Cn1cc(C2=C(c3ccc(Cl)cc3Cl)C(=O)NC2=O)c2ccccc21 | MIA PaCa-2 | > | 10000
Cn1cncc1[C@@](N)(c1ccc(Cl)cc1)c1ccc2c(c1)c(-c1cccc(Cl)c1)cc(=O)n2C | MIA PaCa-2 | = | 320
Nc1ccn([C@@H]2O[C@H](CO)[C@@H](O)[C@@H]2O)c(=O)n1 | MIA PaCa-2 | = | 1490
COc1cc([C@@H]2c3cc4c(cc3[C@@H](O[C@@H]3O[C@@H]5CO[C@@H](C)O[C@H]5[C@H](O)[C@H]3O)[C@H]3COC(=O)[C@H]23)OCO4)cc(OC)c1O [ETOPOSIDE] | MIA PaCa-2 | = | 2660
CN(Cc1cnc2nc(N)nc(N)c2n1)c1ccc(C(=O)N[C@@H](CCC(=O)O)C(=O)O)cc1 [METHOTREXATE] | MIA PaCa-2 | > | 200
O=C1N=C(NCc2cccs2)S/C1=C\c1ccc2ncccc2c1 | MIA PaCa-2 | > | 5000
O=C(c1cc(Cc2n[nH]c(=O)c3ccccc23)ccc1F)N1CCN(C(=O)C2CC2)CC1 | MIA PaCa-2 | > | 5000

###

compounds and their reported IC50
tested on: EC-GI-10; experiment: cells; type: functional, cell-based, Homo sapiens; conditions: Homo sapiens, EC-GI-10
Description: SANGER: Inhibition of human EC-GI-10 cell growth in a cell viability assay.

molecule | IC50
Cc1cnc(-c2cnc(NCCNc3ccc(C#N)cn3)nc2-c2ccc(Cl)cc2Cl)[nH]1 | > 2.56 µM
CN(c1ncccc1CNc1nc(Nc2ccc3c(c2)CC(=O)N3)ncc1C(F)(F)F)S(C)(=O)=O | > 2.56 µM
CC1=C2C[C@H]3[C@@H](CC=C4C[C@@H](O)CC[C@@]43C)[C@@H]2CC[C@]12O[C@@H]1C[C@H](C)CN[C@H]1[C@H]2C | > 16 µM
Cc1cc(Nc2cc(N3CCN(C)CC3)nc(Sc3ccc(NC(=O)C4CC4)cc3)n2)n[nH]1 | > 2 µM

###

tested on: NTERA-2-cl-D1; assay: cells; type: functional, cell-based, Homo sapiens; conditions: Homo sapiens, NTERA-2-cl-D1;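 further: inhibition of cell growth, measured with a cell viability assay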
Description: SANGER: Inhibition of human NTERA-S-cl-D1 cell growth in a cell viability assay.
pIC50: −log10 of the molar value.
molecules and their reported pIC50

molecule | censoring-operator | pIC50
Cn1cc(C2=C(c3ccc(Cl)cc3Cl)C(=O)NC2=O)c2ccccc21 | < | 5.00
CCOc1nc(NC(=O)Cc2cc(OC)ccc2OC)cc(N)c1C#N | < | 5.00
CN1CCN(CCOc2cc(OC3CCOCC3)c3c(Nc4c(Cl)ccc5c4OCO5)ncnc3c2)CC1 | < | 5.70
COc1ccc(-c2ccc3c(N4CCOC[C@@H]4C)nc(N4CCOC[C@@H]4C)nc3n2)cc1CO | = | 6.15
CCc1nc(N)nc(N)c1-c1ccc(Cl)cc1 | < | 4.70
Cc1cc(Nc2cc(N3CCN(C)CC3)nc(Sc3ccc(NC(=O)C4CC4)cc3)n2)n[nH]1 | = | 7.84
O=C(c1cc(Cc2n[nH]c(=O)c3ccccc23)ccc1F)N1CCN(C(=O)C2CC2)CC1 | = | 5.88
C=C1C(=O)O[C@@H]2C3O[C@]3(C)CC/C=C(\C)CC[C@@H]12 (some centres undefined) | < | 5.30
CCC1=C[C@@H]2CN(C1)Cc1c([nH]c3ccccc13)[C@@](C(=O)OC)(c1cc3c(cc1OC)N(C)[C@H]1[C@@](O)(C(=O)OC)[C@H](OC(C)=O)[C@]4(CC)C=CCN5CC[C@]31[C@@H]54)C2 | = | 9.03

###

compounds and their reported pIC50
system: NCI-H2081; experiment: cells; assay type: functional, cell-based; settings: Homo sapiens
Description: SANGER: Inhibition of human NCI-H2081 cell growth in a cell viability assay.
pIC50: −log10 of the molar value.
measured-quantity: pIC50

compound | measured-quantity | reading
CS(=O)(=O)CCNCc1ccc(-c2ccc3ncnc(Nc4ccc(OCc5cccc(F)c5)c(Cl)c4)c3c2)o1 [LAPATINIB] | pIC50 | < 5.70
Cn1cncc1[C@@](N)(c1ccc(Cl)cc1)c1ccc2c(c1)c(-c1cccc(Cl)c1)cc(=O)n2C [TIPIFARNIB] | pIC50 | < 4.80
CN1CCN(CCOc2cc(OC3CCOCC3)c3c(Nc4c(Cl)ccc5c4OCO5)ncnc3c2)CC1 [SARACATINIB] | pIC50 | < 5.70
Cc1ccc(Nc2nccc(N(C)c3ccc4c(C)n(C)nc4c3)n2)cc1S(N)(=O)=O [PAZOPANIB] | pIC50 | < 5.10
C[C@]1(O)C[C@@H](c2nc(-c3ccc4ccc(-c5ccccc5)nc4c3)c3c(N)nccn32)C1 [LINSITINIB] | pIC50 | < 5.59
